Values of IC50 for RAC-beta serine/threonine-protein kinase (Homo sapiens), collected from a number of published sources:

[
  {
    "compound": "NC1(c2ccc(-c3nc4c(cc3-c3ccccc3)-c3n[nH]cc3CC4)cc2)CCC1",
    "IC50": "100 to 1000 nM"
  },
  {
    "compound": "CCc1nnc2n1-c1cc(-c3ccccc3)c(-c3ccc([C@]4(N)C[C@@H](O)C4)cc3)nc1OC2",
    "IC50": "1000 to 10000 nM"
  },
  {
    "compound": "CCCOCc1cnn(C)c1-c1cc2c(cn1)C(=O)N([C@H](CN)Cc1cccc(F)c1)C2",
    "IC50": "< 500 nM"
  },
  {
    "compound": "COc1ncccc1-c1cnn(C)c1-c1ccc2c(c1)CN([C@H](CN)Cc1cccc(F)c1)C2=O",
    "IC50": "> 5000 nM"
  },
  {
    "compound": "Clc1ccc(CN2CCN(c3ncnc4[nH]nc(Br)c34)CC2)cc1Cl",
    "IC50": "> 2000 nM"
  },
  {
    "compound": "CC1(O)CC(N)(c2ccc(-c3nc4n(c3-c3ccccc3)COc3cc(C(=O)NCCO)ccc3-4)cc2)C1 (stereo not drawn)",
    "IC50": "0.7 nM"
  }
]
